- target_under_test: UniProt Q05469
- run_description: Test 2848.2: high-volume screening assay, para-nitrophenyl butyrate (p-NPB) substrate
- Assay type: biochemical
- condition_details: UV-abs 405 nm, 20 min room temp, % Eff (% Inhibition)
Readings of Test 2848.2 HSL % Inhibition All for the listed molecules

Fill in the blank: the reported Test 2848.2 HSL % Inhibition All of CC12CCC(CC1=NOC(=O)NC1CCCCC1)C2(C)C (stereo not drawn) is ____.
59.9%

Fill in the blank: the reported Test 2848.2 HSL % Inhibition All of CCCCCCC(C=Cc1ccc(Cl)cc1)=NOC(=O)NC(C)C is ____.
15.9%

* * *

- target_under_test: Hormone-sensitive lipase (HSL) (Homo sapiens)
- run_description: biochemical
- Assay type: biochemical
- condition_details: 10 μM concentration; percent activity relative to an un-inhibited sample (no compound); read-out: Test 3180.2 HSL % ACTIVITY All
quantity: activity at 10 µM (%)
The answer is to be given in %; state only the numeric part.

>>> recorded_measurement("CSc1nc(-c2ccc(Cl)cc2)nn1C(=O)N1CCOCC1")
40
>>> recorded_measurement("CSc1nc(-c2ccc3ccccc3c2)nn1C(=O)N(C)C")
24
>>> recorded_measurement("CSc1nc(-c2ccc(-c3ccccc3)cc2)nn1C(=O)N(C)C")
22

Fill in the blank: the reported activity at 10 µM of CCCCCCSc1nc(-c2ccc(C)cc2)nn1C(=O)N(C)c1ccccc1 is ____.
24

Fill in the blank: the reported activity at 10 µM of CCSc1nc(-c2ccc(Cl)cc2)nn1C(=O)N(C)C is ____.
14

Fill in the blank: the reported activity at 10 µM of O=C(Nc1cccn1-c1ncc(C(F)(F)F)cc1Cl)Oc1ccc(Cl)cc1 is ____.
2

* * *

Readings of activity at 10 µM for the listed molecules
- target_under_test: Hormone-sensitive lipase (HSL) (Homo sapiens, UniProt Q05469)
- Sequence (Q05469 1-1076): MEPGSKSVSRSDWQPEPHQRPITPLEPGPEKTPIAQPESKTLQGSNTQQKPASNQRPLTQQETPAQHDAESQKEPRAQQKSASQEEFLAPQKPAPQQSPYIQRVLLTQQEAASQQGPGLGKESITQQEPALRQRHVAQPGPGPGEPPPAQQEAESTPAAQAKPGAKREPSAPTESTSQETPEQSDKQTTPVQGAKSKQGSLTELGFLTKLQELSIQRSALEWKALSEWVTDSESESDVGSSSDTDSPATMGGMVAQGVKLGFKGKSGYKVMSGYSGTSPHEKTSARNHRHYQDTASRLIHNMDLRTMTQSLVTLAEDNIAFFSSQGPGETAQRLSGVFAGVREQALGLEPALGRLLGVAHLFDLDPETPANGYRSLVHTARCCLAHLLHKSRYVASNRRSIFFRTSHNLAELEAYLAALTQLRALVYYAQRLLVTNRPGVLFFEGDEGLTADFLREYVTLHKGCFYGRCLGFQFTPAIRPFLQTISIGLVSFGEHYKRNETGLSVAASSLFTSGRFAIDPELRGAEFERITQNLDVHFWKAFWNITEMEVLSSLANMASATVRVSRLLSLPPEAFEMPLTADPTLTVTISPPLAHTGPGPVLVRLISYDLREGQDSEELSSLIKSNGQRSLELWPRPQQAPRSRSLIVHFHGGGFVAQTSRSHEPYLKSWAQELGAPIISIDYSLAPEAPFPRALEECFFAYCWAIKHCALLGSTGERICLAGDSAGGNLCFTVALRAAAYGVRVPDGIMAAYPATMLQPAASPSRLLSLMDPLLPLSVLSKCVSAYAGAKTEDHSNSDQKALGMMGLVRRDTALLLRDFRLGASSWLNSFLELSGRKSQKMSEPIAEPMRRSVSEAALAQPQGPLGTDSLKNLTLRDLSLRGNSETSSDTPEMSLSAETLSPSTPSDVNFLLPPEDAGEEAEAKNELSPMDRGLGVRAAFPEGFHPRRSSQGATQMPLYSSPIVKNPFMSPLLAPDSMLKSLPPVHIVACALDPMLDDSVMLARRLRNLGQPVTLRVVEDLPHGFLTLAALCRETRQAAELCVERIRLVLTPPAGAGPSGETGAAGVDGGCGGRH
- run_description: biochemical
- condition_details: 10 μM sample concentration; percent activity relative to a non-inhibited sample (no compound); read-out: Test 3190.1 HSL_FL % ACTIVITY All
The answer is to be given in %; state only the numeric part.

Take a look at these entries with their results.
>>> recorded_measurement("O=C(Oc1ccc(Oc2ccc(C(F)(F)F)cn2)cc1)N1CCc2ccccc21")
88
>>> recorded_measurement("CC(C)(C)Oc1ccc(OC(=O)N2CCOCC2)cc1")
48
>>> recorded_measurement("Cc1c(Cc2ccccc2)c(=O)oc2cc(OC(=O)N3CCCc4ccccc43)ccc12")
39
>>> recorded_measurement("CCN(C(=O)Oc1ccc(Oc2ccc(C(F)(F)F)cc2)cc1)c1ccccc1")
52

Fill in the blank: the reported activity at 10 µM of COc1ccc(OC)c(-c2c(C)c3ccc(OC(=O)N4CCCc5ccccc54)cc3oc2=O)c1 is ____.
36

Fill in the blank: the reported activity at 10 µM of O=C(Oc1ccc(Oc2c(Cl)cncc2Cl)cc1)N1CCOCC1 is ____.
88

* * *

Readings of Test 2848.2 HSL % Inhibition All for the listed compounds
- target_under_test: Hormone-sensitive lipase (HSL) (Homo sapiens, UniProt Q05469)
- run_description: Test 2848.2: high-volume screening assay, para-nitrophenyl butyrate (p-NPB) substrate
- Type: biochemical
- condition_details: UV-abs 405 nm, 20 min room temp, % Eff (% Inhibition)
The answer is to be given in %; state only the numeric part.

Take a look at these entries with their results.
>>> recorded_measurement("CN(C)C(=O)On1ccc2ccc(S(C)(=O)=O)cc21 [Example 114]")
42.4
>>> recorded_measurement("O=C(Nc1ccc(Cl)c(Cl)c1)n1c(-c2ccccc2)nc2ccccc21 [Example 129]")
27
>>> recorded_measurement("CN(C)C(=O)On1nnc2ccccc2c1=O [Example 116]")
23.5

Then this compound:
Fill in the blank: the reported Test 2848.2 HSL % Inhibition All of O=C(NCCc1ccccc1)n1nc(-c2ccc(Oc3ccccc3)cc2)cc1N1CCOCC1 [Example 127] is ____.
58.7

* * *

- target_under_test: Hormone-sensitive lipase (HSL) (Homo sapiens, UniProt Q05469)
- run_description: Test 2848.2: high-volume screening assay, para-nitrophenyl butyrate (p-NPB) substrate
- Assay type: biochemical
- condition_details: UV-abs 405 nm, 20 min room temp, % Eff (% Inhibition)
Label no (0) if Test 2848.2 HSL % Inhibition All falls below 30%; label yes (1) in every other case.

>>> label("CNC(=O)ON=Cc1c(Br)cnn1Cc1ccc(Cl)cc1")
"no (0)"
>>> label("CCCNC(=O)ON=C(C=Cc1ccc(Br)cc1)CCC(C)C")
"yes (1)"
>>> label("CC(C)CCC(C=Cc1ccc(Br)cc1)=NOC(=O)NC(C)C")
"yes (1)"
>>> label("O=C(NC1CCCCC1)ON=C1c2ccccc2CCc2ccccc21")
"no (0)"
>>> label("COc1ccc2c(OC(=O)N(C)C)cc(=O)n(C)c2c1")
"no (0)"

# input for lookup
Form field: Test 2848.2 HSL % Inhibition All at least 30%? Entry: O=C(Nc1ccc(Cl)cc1)n1nc(-c2ccc(Cl)cc2)cc1CCCO
yes (1)
